# system: JAK3 (Homo sapiens)
# Sequence (P52333 1-1124): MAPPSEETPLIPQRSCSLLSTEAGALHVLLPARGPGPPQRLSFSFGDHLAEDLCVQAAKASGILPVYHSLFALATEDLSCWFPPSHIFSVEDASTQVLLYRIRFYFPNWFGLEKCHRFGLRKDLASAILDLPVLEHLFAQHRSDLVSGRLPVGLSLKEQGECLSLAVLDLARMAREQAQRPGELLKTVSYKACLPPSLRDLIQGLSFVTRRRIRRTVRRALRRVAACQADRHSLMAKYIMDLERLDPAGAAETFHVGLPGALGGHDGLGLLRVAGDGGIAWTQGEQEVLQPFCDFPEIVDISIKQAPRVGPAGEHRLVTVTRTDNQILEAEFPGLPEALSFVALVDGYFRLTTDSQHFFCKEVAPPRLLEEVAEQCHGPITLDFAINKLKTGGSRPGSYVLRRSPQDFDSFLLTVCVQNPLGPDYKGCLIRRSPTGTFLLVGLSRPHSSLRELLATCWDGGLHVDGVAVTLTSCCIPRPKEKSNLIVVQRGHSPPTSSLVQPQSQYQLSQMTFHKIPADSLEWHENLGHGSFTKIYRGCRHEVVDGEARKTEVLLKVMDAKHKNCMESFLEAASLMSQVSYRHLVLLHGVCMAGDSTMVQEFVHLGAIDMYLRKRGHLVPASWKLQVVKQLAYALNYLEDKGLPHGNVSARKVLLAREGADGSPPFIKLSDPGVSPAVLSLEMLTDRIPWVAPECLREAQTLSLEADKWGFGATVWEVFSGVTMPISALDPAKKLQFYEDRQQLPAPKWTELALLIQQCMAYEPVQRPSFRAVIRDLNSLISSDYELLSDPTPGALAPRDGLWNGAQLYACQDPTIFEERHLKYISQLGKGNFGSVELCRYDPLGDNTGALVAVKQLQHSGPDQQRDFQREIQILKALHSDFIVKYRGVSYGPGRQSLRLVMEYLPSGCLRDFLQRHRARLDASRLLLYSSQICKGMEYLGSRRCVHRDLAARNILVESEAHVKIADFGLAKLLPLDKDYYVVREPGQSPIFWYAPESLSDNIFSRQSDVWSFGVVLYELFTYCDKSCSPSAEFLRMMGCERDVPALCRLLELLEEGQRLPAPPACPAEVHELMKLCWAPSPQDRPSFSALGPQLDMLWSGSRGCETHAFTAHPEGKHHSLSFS
property: IC50 (nM)
Answers are plain numbers, in nM.

If you can, please state the reported IC50 value of C=CC(=O)Nc1cc(-n2c(=O)ccc3cnc4ccc(-n5cccn5)cc4c32)ccc1C . 169

* * *

# system: UniProt:Q06187
# Sequence (Q06187 whole entry): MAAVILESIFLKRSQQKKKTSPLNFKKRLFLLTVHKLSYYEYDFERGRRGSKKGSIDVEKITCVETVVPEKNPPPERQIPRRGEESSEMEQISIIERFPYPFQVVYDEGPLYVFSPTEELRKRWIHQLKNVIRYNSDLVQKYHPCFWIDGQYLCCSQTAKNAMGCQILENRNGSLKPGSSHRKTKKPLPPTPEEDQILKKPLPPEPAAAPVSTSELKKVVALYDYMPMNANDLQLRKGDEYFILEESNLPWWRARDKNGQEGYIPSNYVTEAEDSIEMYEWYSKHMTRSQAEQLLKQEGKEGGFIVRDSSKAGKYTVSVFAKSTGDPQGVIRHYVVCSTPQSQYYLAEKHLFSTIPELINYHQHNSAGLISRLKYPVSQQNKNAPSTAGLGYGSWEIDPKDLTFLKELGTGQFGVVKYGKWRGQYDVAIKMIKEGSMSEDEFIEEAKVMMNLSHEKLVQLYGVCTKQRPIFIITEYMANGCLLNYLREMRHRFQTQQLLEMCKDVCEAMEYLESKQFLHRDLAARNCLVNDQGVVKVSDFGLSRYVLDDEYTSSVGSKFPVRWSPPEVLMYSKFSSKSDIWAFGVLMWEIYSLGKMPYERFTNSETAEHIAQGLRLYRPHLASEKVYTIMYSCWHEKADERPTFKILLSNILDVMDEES
# protocol_description: Btk acellular kinase assay, BTK WT protein purified from transfected 293T cells
# measurement_conditions: 30 min room temperature preincubation, 100 μM ATP, 37° C., 20 min
property: pIC50
Numbers only, as −log10 of the molar value.

If you can, please state the reported pIC50 value of C=CC(=O)Nc1cc(-n2c(=O)ccc3cnc4ccc(-n5cccn5)cc4c32)ccc1C [Compound 1] . 7.25

* * *

# system: EGFR (T790M) (Homo sapiens, UniProt P00533, T790M)
# Construct: The intracellular segment (699-1068) region of EGFR was cloned into the insect expression vector pAcG2T; GST
# Sequence (P00533 699-1068 T790M): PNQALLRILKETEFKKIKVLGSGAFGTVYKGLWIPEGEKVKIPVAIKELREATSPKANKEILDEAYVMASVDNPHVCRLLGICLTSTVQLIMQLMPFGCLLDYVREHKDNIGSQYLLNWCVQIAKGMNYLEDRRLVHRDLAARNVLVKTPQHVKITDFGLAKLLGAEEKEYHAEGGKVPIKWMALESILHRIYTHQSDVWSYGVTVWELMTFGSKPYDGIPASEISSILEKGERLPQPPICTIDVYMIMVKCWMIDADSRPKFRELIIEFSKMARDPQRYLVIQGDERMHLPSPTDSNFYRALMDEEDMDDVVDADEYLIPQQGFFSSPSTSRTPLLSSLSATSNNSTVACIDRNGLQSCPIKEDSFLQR
# protocol_description: In vitro enzymatic activity (ADP-Glo)
# measurement_conditions: 4 hrs preincubation, 10 μM ATP
property: IC50 (µM)
Give bare numbers, in µM.

If you can, please state the reported IC50 value of C=CC(=O)Nc1cc(-n2c(=O)ccc3cnc4ccc(-n5cccn5)cc4c32)ccc1C . 5.5

Cited source: patent US9814709B2
